test system: MALME-3M melanoma
Classes to choose from: active, inactive

These recorded examples may help you get a feel for the data.
Cn1cc(C2=C(c3cn(C)c4ccc(OCc5ccccc5)cc34)C(=O)NC2=O)c2ccccc21 : inactive
CC(=O)Nc1cccc(C#Cc2cncnc2Nc2ccc(OCc3cccc(F)c3)c(Cl)c2)n1 : inactive
CCOC(=O)c1ccc2c(c1)c1c(C)c3cnccc3c(C)c1n2C : active
C/C(Cc1ccc(Cl)cc1)=C(\c1ccc(OCCN2CCCCCC2)cc1)c1ccc(OC(=O)c2ccccc2)cc1 : inactive
CC/C(=C(\c1ccc(Cl)cc1)c1ccc(OCCN2CCCCC2)cc1)c1ccc(O)cc1 : inactive
C=CC(=O)N1CC2(CCC(n3nc(-c4ccc(Oc5ccccc5)cc4)c4c(N)ncnc43)CC2)C1 : inactive

Data request: // param item: Clc1ccc(-c2ccc(CNCC3CCNCC3)o2)c(-c2ccccc2)c1 ; yields the recorded call
Data returned: inactive

Data request: // param item: NC1CCCCC1N.O=NN1CCCCCC1(P(=O)([O-])[O-])P(=O)([O-])[O-].[Na+].[Pt+2] ; yields the recorded call
Data returned: inactive

Data request: // param item: C=CCSSC1N=CNc2nc[nH]c21 (configuration not stated) ; yields the recorded call
Data returned: inactive

Data request: // param item: COc1ccc(/C=C/C(=O)c2ccc(NC(=O)CSc3nnc(-c4ccc(OC)c(OC)c4)n3-c3ccccc3)cc2)cc1 ; yields the recorded call
Data returned: inactive

Data request: // param item: CC[C@H](Nc1cc(C)nc(N)n1)c1nc2cccc(NCc3ccc(C(=O)NO)cc3)c2c(=O)n1-c1ccccc1 ; yields the recorded call
Data returned: inactive

Data request: // param item: O=C(/C=C/c1cccc(O)c1)c1cccc(-n2cc(-c3ccc(Cl)cc3)[nH]c2=O)c1 ; yields the recorded call
Data returned: inactive

====

Please provide measured TGI for the entries that follow.
tested on: SN12C renal; assay: NCI tumour cell line growth inhibition, 48 h

O=C(CSc1nnc(Cc2ccccc2)o1)Nc1ccc(Cl)cc1Cl : > 100 µM

Batch lookup, TGI per entry.
1. COC(=O)CCC(NC(=S)N/N=C(\C)c1ccco1)C(=O)OC (configuration not stated)
2. Cc1ccc2cc3c(N)c4c(C)ccc(C)c4nc3nc2c1
3. O=C(NNc1cn[nH]c(=O)n1)c1cccc2nc3ccccc3nc12

Data returned:
1: > 100 µM; 2: 21 µM; 3: > 100 µM

Batch lookup, TGI per entry.
1. CCCCCC(=O)n1[nH]c(=O)n(-c2ccc(OC)cc2)c1=O
2. Cn1c(N)c(Cc2ccc(Cl)cc2)c(=O)[nH]c1=O
3. c1ccc(N2CCN(CN3CCN(c4ccccc4)C3)C2)cc1
4. Cc1cc2c(cc1C)[n+]([O-])c(NCCCN(C)C)c(C#N)[n+]2[O-]
5. N#CC(C#N)=c1ccc(=C2N3CCCC3CN2C23CC4CC(CC(C4)C2)C3)cc1 (configuration not stated)
6. CCOP(=O)(OCC)OC1c2[nH]ccc2-c2cc(C(=O)OC)[nH]c2C1OC (configuration not stated)
7. CCc1cccc(CC)c1NC(=O)C(=O)Cc1nc2ccccc2o1

Data returned:
> 100 µM
> 100 µM
> 100 µM
> 100 µM
> 100 µM
> 100 µM
> 100 µM

Batch lookup, TGI per entry.
1. COc1ccc(/C=C/C(=O)c2ccc(NC(=O)CSc3nnc(-c4ccc(OC)c(OC)c4)n3-c3ccccc3)cc2)cc1
2. CC(C)OC(=O)Nc1ccc(-c2nc(-c3cccc(OCCN4CCOCC4)c3)c(-c3ccnc(Br)c3)[nH]2)cc1
3. Cc1cn(C(=O)NC23CC4CC(CC(C4)C2)C3)c(=O)[nH]c1=O
4. CC1=C(/C=C/C(C)=C/C=C/C(C)=C/C=C/C=C(C)/C=C/C=C(C)/C=C/C=C(C)/C=C/C=C(\C)C(=O)O)C(C)(C)CCC1
5. O=C(CC(=O)Nc1ccc(C(=O)O)cc1)Nc1ccc(C(=O)O)cc1
6. COC(=O)c1cc2cc(OC)c(OC)cc2cc(C(=O)OC)c1=O
7. CCOC(=O)Nn1cnnc1C

Data returned:
["7.09 µM", "> 100 µM", "> 100 µM", "> 100 µM", "> 100 µM", "> 100 µM", "> 100 µM"]

Ref: PubChem BioAssay (NCI)
